Test system: 786-0 renal
assay: NCI-60 one-dose screen, 48 h
condition_details: 10 µM unless noted
Compounds without any hit were thinned out: in the full panel of roughly 83,000, 20% have a hit. Calls of active or inactive are those of the source. How the source made its calls: active means growth percent below 10; inactive means the rest.
Can you answer with just one of these options? active, inactive

# count of solved cases: 3
INSERT INTO assay_data (molecule, label) VALUES
  ('NCCOCCOc1ccccc1', 'inactive'),
  ('CN1C(=O)/C(=C/c2ccc(C(=O)Nc3ncc(Cc4ccccc4Cl)s3)cc2)SC1=S', 'inactive'),
  ('Cc1ccc2[nH]c(=S)[nH]c(=O)c2c1', 'inactive');

--- query ---
query: Outcome logged for C=C(C)[C@@H]1CC[C@]2(C)[C@H](CC(=O)N[C@H]3[C@@H]4C[C@](C)(C(=O)OC)CC[C@]4(C)CC[C@]32C)[C@@]1(C)CCC#N in this assay:
result: inactive

* * *

Test system: IGROV1 ovarian
assay: NCI-60 one-dose screen, 48 h
condition_details: 10 µM unless noted
Compounds without any hit were thinned out: in the full panel of roughly 83,000, 20% have a hit. Calls of active or inactive are those of the source. The calls were made as follows: active = growth percent below 10; inactive = the rest.
A correct response names exactly one class from active, inactive

INSERT INTO measurements (item_smiles, label) VALUES
  ('N#Cc1c(N)nnn1Cc1cc(=O)oc2ccc(O)cc12', 'inactive'),
  ('C=CCN1C=CC(=O)[C@H](O[Si](C)(C)C(C)(C)C)[C@@H]1/C=C/c1ccccc1', 'active'),
  ('CCOC(=O)c1nc2c3ccccc3cnn2c1C(=O)c1ccc(OC)cc1', 'inactive'),
  ('COc1ccc(/C(C)=C(\c2ccc(OCCN3CCOCC3)cc2)c2ccc(OC(=O)C3CCCCC3)cc2)cc1', 'inactive'),
  ('COc1ccc(-c2c[nH]c(C(=O)O)c2-c2cc(OC)c(OC)c(OC)c2)cc1', 'inactive'),
  ('CN1C(=O)/C(=C/c2ccc(C(=O)Nc3ncc(Cc4ccccc4Cl)s3)cc2)SC1=S', 'inactive'),
  ('CCCCC1=C(Br)C(=O)c2nc(C)ccc2C1=O', 'inactive'),
  ('CCN1CCN(CC(=O)Nc2nc3ccc(NCc4ccc(C)cc4)cc3s2)CC1', 'inactive');

query: Could you please tell me the result logged for CCN(c1cc(-c2ccc(CN3CCC(/C=C/S(=O)(=O)c4ccccc4)CC3)cc2)cc(C(=O)NCc2c(C)cc(C)[nH]c2=O)c1C)C1CCOCC1 in this assay?
result: inactive

* * *

Tested on: SK-OV-3 ovarian
assay: NCI-60 one-dose screen, 48 h (100 = growth as untreated, 0 = no growth, -100 = all killed)
condition_details: 10 µM unless noted
The panel holds about 83,000 compounds, 20% with a hit somewhere; the sample as a whole holds those more often.
Below, each of the compounds is paired with its reported growth value.
The response must be a number in % with no trailing unit.

The reported growth of the compound O=C1/C(=C/c2ccc(-c3ccccc3C(F)(F)F)o2)SC(=S)N1CCc1ccc(O)cc1 was 64

Input Cc1cc(N2CCCCC2)nc(NCc2cc(Nc3ccnc4cc(Cl)ccc34)ccc2F)n1 . Output growth: 72.6

For this compound ( C=C(C)[C@@H]1CC[C@]2(C)[C@H](CC(=O)N[C@H]3[C@@H]4C[C@](C)(C(=O)OC)CC[C@]4(C)CC[C@]32C)[C@@]1(C)CCC#N ), measured growth is 97.4

Entry under test: COc1cc(/C=C2\CCC/C(=C\c3cc(CN4CCCC4)c(O)c(OC)c3)C2=O)cc(CN2CCCC2)c1O . Its growth was 102

Notebook: Brc1ccc(/C=C(/C2=NCCN2)n2ccc3ccccc32)cc1 , growth read as 82

* * *

Tested on: OVCAR-8 ovarian
assay: NCI-60 one-dose screen, 48 h
condition_details: 10 µM unless noted
This is part of a sample that, as a whole, favours compounds with a hit. Of some 83,000 tested, about 20% had one in any assay. Active and inactive are the calls of the source. How the source made its calls: active means growth percent below 10; inactive means the rest.
Return exactly one item of active, inactive

Below are worked cases with known answers.
INSERT INTO results (compound, label) VALUES
  ('O=c1c(/C=C/c2ccco2)nnc2sc(Nc3ccc(Cl)cc3)nn12', 'inactive'),
  ('COc1cc(OC)cc(-c2ccc(-c3ccc(C(=N)N)cn3)s2)c1', 'inactive'),
  ('O=c1oc2c(Br)cc(Br)cc2cc1-c1cc(-c2ccc(-c3cc(-c4cc5cc(Br)cc(Br)c5oc4=O)nc(-c4cc5cc(Br)cc(Br)c5oc4=O)c3)cc2)cc(-c2cc3cc(Br)cc(Br)c3oc2=O)n1', 'inactive'),
  ('Nc1ccc(/C=N/Nc2ccnc3c(N)cccc23)c2cccnc12', 'active'),
  ('CCCCC(NC(=O)CN1C(=O)/C(=C/C(C)=C/c2ccccc2)SC1=S)C(=O)O (centres undefined)', 'inactive'),
  ('BrC1=C(Br)C(Br)(Br)C(Br)=C1Br', 'inactive'),
  ('COc1cccc(NC(=O)c2sc3nc(C)c(C(O)c4ccccc4)cc3c2N)c1 (centres undefined)', 'active'),
  ('O=C(CCCCCCCCC(=O)N/N=C\c1ccccc1O)N/N=C\c1ccccc1O', 'inactive');

Please examine the following record next.
query: Test call for this compound, please: CN1C(=O)/C(=C/c2ccc(C(=O)Nc3ncc(Cc4ccccc4Cl)s3)cc2)SC1=S
result: inactive

* * *

Test system: SNB-19 CNS
assay: NCI-60 one-dose screen, 48 h (100 = growth as untreated, 0 = no growth, -100 = all killed)
condition_details: 100 µM
The panel holds about 83,000 compounds, 20% with a hit somewhere; the sample as a whole holds those more often.
Recorded growth values for a group of compounds are listed next.
Write the value in % as a bare number.

Solved entries:
INSERT INTO measurements (item_smiles, unit_text, measured_value) VALUES
  ('COc1ccc(C(=O)/C=C/c2ccc(OCc3cccc(C(F)(F)F)c3)c(OC)c2)cc1OC', '%', -21.9),
  ('CC(=O)/C=C/c1ccc(OCc2ccc(C(C)(C)C)cc2)cc1', '%', 28.5),
  ('CCN(Cc1ccccc1)c1ccc(/C=C2\COc3ccccc3C2=O)cc1', '%', 50.4),
  ('CC(=O)/C=C/c1ccc(N(C)Cc2ccc(C(C)(C)C)cc2)cc1', '%', -31.2);

Kindly review the next compound as well.
Lab note: compound COc1ccc(C(=O)/C=C/c2ccc(OCc3ccc(Cl)cc3)cc2)cc1OC tested on SNB-19 CNS; recorded growth was -47.3

* * *

Test system: NCI/ADR-RES ovarian
assay: NCI-60 one-dose screen, 48 h (100 = growth as untreated, 0 = no growth, -100 = all killed)
condition_details: 10 µM unless noted
This is part of a sample that, as a whole, favours compounds with a hit. Of some 83,000 tested, about 20% had one in any assay.
Please note: growth exactly at 90% is condition not met. Only values below 90% get condition met.

Examples from the recorded data:
INSERT INTO measurements (compound, label) VALUES
  ('COc1ccc2c(O)c(/C=C3\N=Nc4nc(C)ccc43)oc2c1CC1CCNCC1', 'condition not met'),
  ('COC(=O)/C=C1/SC(N2N=C(c3cccs3)CC2c2ccc(F)cc2)=NC1=O (centres undefined)', 'condition met'),
  ('N#CC(Cc1cccc2ccccc12)c1cc2ccccc2[nH]1 (centres undefined)', 'condition met'),
  ('N#Cc1c(-c2cccc(F)c2)cc(-c2cccnc2)[nH]c1=O', 'condition not met'),
  ('O=c1cc(N/N=C/c2ccc(F)cc2)c2cc(Cl)ccc2[nH]1', 'condition not met');

query: Please let me know if COC1=CC(c2ccc[nH]2)=N/C1=C\c1[nH]c(C)c(C(=O)Oc2ccccc2)c1C shows growth below 90%.
result: condition met

query: Here's an entry: COc1ccc(/C(C)=C(\c2ccc(OCCN3CCCCCC3)cc2)c2ccc(OC(=O)C3CCCCC3)cc2)cc1 . Is its growth below 90%?
result: condition met

* * *

System: DU-145 prostate
assay: NCI-60 one-dose screen, 48 h (100 = growth as untreated, 0 = no growth, -100 = all killed)
condition_details: 10 µM unless noted
The panel holds about 83,000 compounds, 20% with a hit somewhere; the sample as a whole holds those more often.
Note to self: class labels come from recorded growth, ranges listed here: low bin: < 30%; mid bin: ≥ 30% and < 90%; high bin: ≥ 90%

Example entries and their recorded answers appear below.
INSERT INTO results (compound, test_system, label) VALUES
  ('Nc1[nH]nc(Nc2ccccc2)c1-c1nc2ccccc2s1', 'DU-145 prostate', 'low bin'),
  ('CCCCCC#CC1OC23CCCCC2C(C#N)(C(=N)O3)C1(C#N)C#N (stereo not drawn)', 'DU-145 prostate', 'high bin'),
  ('COc1ccc(/C(C)=C(\c2ccc(OCCN3CCCCCC3)cc2)c2ccc(OC(=O)C3CCCCC3)cc2)cc1', 'DU-145 prostate', 'low bin'),
  ('COc1ccc(C/C(C)=C(/c2ccc(OCCN3CCCCCC3)cc2)c2ccc(OC(=O)c3ccccc3)cc2)cc1', 'DU-145 prostate', 'high bin'),
  ('COc1ccc2c(c1)oc1c(C)c3c(c(C)c12)C(=O)N(Nc1ccccc1)C3=O', 'DU-145 prostate', 'high bin');

query: Field: class (growth) — entry: CCC(=C(c1ccc(OCCCN(C)C)cc1)c1ccc(OCCCN(C)C)cc1)c1ccc(Cl)cc1
result: low bin
